molecular target: T1, human C5 (human, UniProt P01031 19-673; P01031 678-1676, Beta and alpha chains are disulfide-linked and the protein is glycosylated.); test: Biacore, captured antibody, pH 7.4, 37 C;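 also: biacore binding response of anti-C5 antibody light chain variants captured on chip with human C5 injected, ACES running buffer containing 1.2 mM CaCl₂, parent light chain antibody set to 100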
T1 construct: Either in-house recombinant C5 or plasma derived C5 (CALBIOCHEM) was used; also called recombinant human C5; plasma derived human C5
Reported % binding (parent = 100) values follow for various binders
The answer is to be given in %; state only the numeric part.

| binder | numericValue |
| --- | --- |
| CFP0011 11L 32Q (antibody, V domains shown) VH: QVQLVQSGAEVKKPGSSVKVSCKASGGTFSSYAISWVRQAPGQGLEWMGGIIPIFGTANYAQKFQGRVTITADESTSTAYMELSSLRSEDTAVYYCARDMSEFLGWSNYYSYPMDVWGQGTTVTVSS VL: DIQMTQSPSSLSASVGDRVTITCRASQSIEDQLAWYQQKPGKAPKLLIYHASSLQSGVPSRFSGSGSGTDFTLTISSLQPEDFATYYCQQSDNSPYTFGQGTKVEIK | 18.4 |

## Task Using known records, supply % binding (parent = 100) for CFP0011 (antibody, V domains shown, IgG format) VH: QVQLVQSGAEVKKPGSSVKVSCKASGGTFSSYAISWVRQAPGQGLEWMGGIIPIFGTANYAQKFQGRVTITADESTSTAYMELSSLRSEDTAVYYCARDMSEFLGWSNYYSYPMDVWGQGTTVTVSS VL: DIQMTQSPSSLSASVGDRVTITCRASQSIEDDLAWYQQKPGKAPKLLIYHASSLQSGVPSRFSGSGSGTDFTLTISSLQPEDFATYYCQQSDNSPYTFGQGTKVEIK
## Result 100

## Task Using known records, supply % binding (parent = 100) for CFP0011 11L 93G (antibody, V domains shown) VH: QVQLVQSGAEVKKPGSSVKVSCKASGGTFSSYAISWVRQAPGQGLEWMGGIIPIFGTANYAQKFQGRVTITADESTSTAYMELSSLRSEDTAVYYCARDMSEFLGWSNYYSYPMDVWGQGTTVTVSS VL: DIQMTQSPSSLSASVGDRVTITCRASQSIEDDLAWYQQKPGKAPKLLIYHASSLQSGVPSRFSGSGSGTDFTLTISSLQPEDFATYYCQQSDGSPYTFGQGTKVEIK
## Result 3.6
